All values here come from PubChem BioAssay (NCI).

Tested on: EKVX NSCLC
Assay: NCI tumour cell line growth inhibition, 48 h
property_measured: TGI

compound: COC(=O)c1c(C)[nH]c(/C=C2\N=C(c3ccc[nH]3)C=C2OC)c1C
TGI: 3.28 µM
--
compound: Cc1ccc(NC(=S)N/N=C(/c2ccccc2)c2ccccn2)cc1
TGI: 12.9 µM

[in] Reported TGI for EKVX NSCLC, given "Cc1nc(-c2ccccc2)c(-c2ccccc2)s1" ?
[out] 69.4 µM

[in] Notebook entry, EKVX NSCLC assay: TGI of "O=C1C=CC=C/C1=C1\N=C(c2ccccc2OCC(=O)c2ccc(Br)cc2)SS1" = ?
[out] > 100 µM

[in] Can you look up TGI on EKVX NSCLC for "CCOP(=O)(CN1CCNCCNCC1)OCC" ?
[out] > 100 µM

[in] Recall the recorded TGI for "COc1cc2c3c(n(CCCCOC(=O)C(Cl)(Cl)Cl)c(=O)c2cc1OC)-c1cc2c(cc1C3=O)OCO2" with EKVX NSCLC and state it.
[out] > 100 µM

[in] Param readout= TGI; system= EKVX NSCLC; entry= "CCO/N=C(/N)c1ncn(Cc2ccccc2)c1NCC(OCC)OCC" ; returns value.
[out] > 100 µM

[in] Checklist item: TGI tested on EKVX NSCLC, entry COC(=O)CCc1cc(O)c2c(c1)C(C(=O)OC)C(c1ccc(O)c(O)c1)O2 (centres undefined) , value?
[out] > 100 µM

[in] Hi! What's the reported TGI for "CC(C)(C)C1=CC(=C(c2ccc(-c3c4nc(c(-c5ccc(C(=C6C=C(C(C)(C)C)C(=O)C(C(C)(C)C)=C6)c6cc(C(C)(C)C)c(O)c(C(C)(C)C)c6)cc5)c5ccc([nH]5)c(-c5ccc(C(=C6C=C(C(C)(C)C)C(=O)C(C(C)(C)C)=C6)c6cc(C(C)(C)C)c(O)c(C(C)(C)C)c6)cc5)c5nc(c(-c6ccc(C(=C7C=C(C(C)(C)C)C(=O)C(C(C)(C)C)=C7)c7cc(C(C)(C)C)c(O)c(C(C)(C)C)c7)cc6)c6ccc3[nH]6)C=C5)C=C4)cc2)c2cc(C(C)(C)C)c(O)c(C(C)(C)C)c2)C=C(C(C)(C)C)C1=O" on EKVX NSCLC?
[out] > 100 µM

[in] Write down the reported TGI of COC(=O)C12C3C4C1C1C2C3C41NC(=O)c1csc([C@@H](C[C@H](C(C)C)N(C)C(=O)[C@@H](NC(=O)[C@H]2CCCCN2C)C2CC2)OC(C)=O)n1 (some centres undefined) , test system: EKVX NSCLC.
[out] > 33.3 µM

----------
Tested on: SR leukemia
Experiment: NCI tumour cell line growth inhibition, 48 h
Each item that follows carries a reported TGI.

Previously resolved entries follow.
structure_smiles: CCNc1cc2c(cc1O)CC[C@@H]1[C@@H]2CC[C@]2(C)[C@@H](O)CC[C@@H]12
assayed_system: SR leukemia
observed_result: 41.2 µM
--
structure_smiles: COc1cc2c3c(n(CCNCCCNCCn4c5c(c6cc(OC)c(OC)cc6c4=O)C(=O)c4ccccc4-5)c(=O)c2cc1OC)-c1ccccc1C3=O
assayed_system: SR leukemia
observed_result: 0.702 µM

[in] Item under review: "O=S1(=O)N(CCNc2nccc(-c3c(-c4cccc(O)c4)nc4sccn34)n2)CCN1Cc1ccccc1" . Reported TGI?
[out] > 50 µM

----------
Measured TGI accompanies every entry in the list below.
Tested on: SF-539 CNS
Experiment: NCI tumour cell line growth inhibition, 48 h

Reference set (3 entries):
compound: Cc1cc(=O)n2nc(CN3CCCCC3)sc2n1
assayed_system: SF-539 CNS
TGI: > 100 µM
--
compound: O=C1CCCCC2N(C(c3ccccc3)c3ccccc3)CC[C@@]12c1ccccc1 (mixture of isomers)
assayed_system: SF-539 CNS
TGI: > 10 µM
--
compound: COc1cc2c(c(OC)c1OC)-c1c(cc3c(c1OC)OCO3)C1OC2C(C)C1C (centres undefined) (tested in a mixture with another compound)
assayed_system: SF-539 CNS
TGI: > 100 µM

Attention now shifts to the item below.
[in] Quick one: TGI of "CNC(=O)N1CN(c2ccccc2)C2(CCN(CCCC3(c4ccc(F)cc4)OCCO3)CC2)C1=O" ?
[out] > 100 µM

----------
Test system: HCC-2998 colon
Assay: NCI tumour cell line growth inhibition, 48 h
Listed here: items and their measured GI50.

molecule: C=C[C@H]1C[C@@H]2C[C@@H]3[C@H]4C/C=C\C(=O)NCCCC5NC(=O)C(=C(O)/C=C/[C@@H]4CC(=O)[C@H]3[C@@H]2[C@H]1C)C5=O (stereo not given in full)
GI50: 1410 nM

[in] Record request: GI50 value, item "COc1cc(NS(=O)(=O)c2ccc(-c3cnc(C4CC4)o3)cc2)ccc1F"
[out] 1090 nM

[in] Recorded GI50 of "COc1ccc(OC)c(C(=O)c2oc3ccc(Br)cc3c2N)c1" , please.
[out] 1320 nM

[in] May I ask what GI50 has been recorded for "COc1ccc(-c2nnc(COc3ccc(NC(=O)Nc4ccc(Cl)c(C(F)(F)F)c4)cc3F)o2)cc1" ?
[out] 4860 nM

[in] Request the reported GI50 associated with C=C(C)C1CCC2(C(=O)O)CCC3(C)C(CCC4C5(C)CCC(OC(=O)NCc6ccccc6)C(C)(C)C5CCC43C)C12 (stereo not given)
[out] 2800 nM

----------
Tested on: SW-620 colon
Assay: NCI tumour cell line growth inhibition, 48 h
Overview of recorded TGI for various compounds

Known results for compounds:
compound: NNc1nncc2n[nH]nc12
assayed_system: SW-620 colon
TGI: > 100 µM
//
compound: COc1cc(O)c2c(c1)OCC(Cc1ccc(O)cc1)C2=O (stereo not drawn)
assayed_system: SW-620 colon
TGI: > 100 µM
//
compound: C/C=C(/C)C(=O)O[C@H]1C[C@@H]2[C@@H](O)c3occ(C)c3C[C@]2(C)[C@@H](C)C1
assayed_system: SW-620 colon
TGI: 32.6 µM

[in] Form field - read-out: TGI; system: SW-620 colon; submitted item: COc1ccc(C2C3=C(Nc4ncnn42)c2ccccc2OC3c2ccccc2)cc1 (stereo not drawn)
[out] > 100 µM

[in] Lab note: need TGI with SW-620 colon for entry "FC(F)(F)c1nc(-c2ccccc2)oc1Sc1nnc(Sc2oc(-c3ccccc3)nc2C(F)(F)F)s1" , please look it up.
[out] > 100 µM

[in] Observed TGI on SW-620 colon for N#CCC(=O)NC1C2CC3CC(C2)CC1C3 (stereo not drawn) , please.
[out] 51.7 µM

[in] State its TGI on SW-620 colon: O=C1NC2OCC(O)C(O)C2O1 (stereo not drawn)
[out] > 100 µM

[in] Request: TGI, test system SW-620 colon, entry "O=C1OC(c2ccco2)=N/C1=C\c1cccc([N+](=O)[O-])c1"
[out] > 100 µM

[in] Query the reported TGI for SW-620 colon; item: "CC(C)=CC(=O)C[C@H]1C(=O)O[C@@H]2C[C@H]3C(C)=CC(=O)[C@@H](O)[C@]3(C)[C@H]3[C@@]4(O)OC[C@]32[C@@H]1[C@@H](C)[C@H]4O"
[out] 6.26 µM

[in] Missing value: TGI, SW-620 colon, entry "COC/C=C\[C@]1(O)CCCC[C@@H]1CC(OC)OC" . Fill in?
[out] > 100 µM

[in] Report TGI for "CC1(C)N=C(N)N=C(N)N1c1ccc(OCc2ccc(S(=O)(=O)F)c(Cl)c2)c(Cl)c1" tested on SW-620 colon.
[out] > 100 µM

[in] # returns recorded TGI (system: SW-620 colon) for "CC1=N/C(=C\c2cccc([N+](=O)[O-])c2)C(=O)O1"
[out] > 100 µM

[in] Recorded TGI for "NC(N)=N/N=C/c1c(-c2cccc([N+](=O)[O-])c2)nc2n1CCS2" with SW-620 colon, please?
[out] 37.7 µM

----------
System: K-562 leukemia
Assay: NCI tumour cell line growth inhibition, 48 h
property_measured: TGI

Example results:
compound: O=C(Cc1ccccc1)N/N=C/c1ccccc1O
observed_result: > 100 µM

compound: O=C1OC(c2ccco2)=N/C1=C\c1cccc([N+](=O)[O-])c1
observed_result: > 100 µM

[in] Would you mind telling me what TGI value was observed for "Cc1ccc(NC(=O)c2cccc(OP(=O)(O)Nc3ccc(C)cc3)c2)cc1" ?
[out] > 100 µM

[in] Recorded TGI for CC12CCC([C@H](C(O)C3CCCCC3)C1=O)C2(C)C (stereo not given in full) , please?
[out] > 100 µM

----------
System: DU-145 prostate
Test: NCI tumour cell line growth inhibition, 48 h
property_measured: TGI

Worked examples, 2 compounds total:
compound: NCCCCC(N)C(=O)NCCNc1ccc(NCCNC(=O)C(N)CCCCN)c2c1C(=O)c1ccccc1C2=O (stereo not drawn)
assayed_system: DU-145 prostate
TGI: > 100 µM
--
compound: COc1ccc(N2C(=O)C3ON(C(C(N)=O)c4ccccc4)C(c4cc5ccccc5c5ccccc45)C3C2=O)cc1 (stereo not drawn)
assayed_system: DU-145 prostate
TGI: > 50 µM

# ---- query compound ----
[in] Would you mind telling me what TGI value was observed for "Cn1c2ccccc2c2c3[nH]c(=O)[nH]c(=O)c3c3c4ccccc4n(C)c3c21" ?
[out] > 100 µM
